Origin of the recorded values: PubChem BioAssay

Experiment: reversal of MRP1-mediated doxorubicin resistance, pilot screen, H69AR cells, doxorubicin co-treatment (AID 601)
Conditions: H69AR cells, CellTiter-Glo, 72 h; compound alone cytotoxicity; at 10 µM
RESULT_TYPE: viability
Note to self: number, then unit, no commentary.

Worked examples follow.
MOLECULE	viability
Cc1c(Cl)cccc1NC(=O)CCN1CCCCCC1	88.3%
FC(F)(F)C(F)(F)C(F)(F)c1nnc2ccc(N3CCOCC3)nn12	83.7%
COc1ccc(C2c3c(oc4ccccc4c3=O)C(=O)N2Cc2ccncc2)cc1OC (stereo unspecified)	93.7%
Cc1cc(C)c(C#N)c(SCc2ccc(C#N)cc2)n1	68.5%
CSc1nc(N)nc(SCCS(=O)(=O)c2ccc(Cl)cc2)c1C#N	26.9%
O=C(CN1C(=O)CCS(=O)(=O)c2ccccc21)NCc1ccc(F)cc1	98.4%
COc1ccc(N(CC(=O)N2CCCCC2)S(=O)(=O)c2ccccc2)c(OC)c1	86.5%
COc1ccc(OC)c(NC(=O)CS(=O)(=O)c2ccccc2)c1	86.3%

Your task in this section: give viability for each listed record.
1. COc1ccc(CCNc2oc(-c3ccccc3OC)nc2C#N)cc1
2. CC(=O)CCc1ccc(OCCCCn2cncn2)cc1
3. COc1ccc(CCNC(=O)c2cc(C(C)C)on2)cc1OC

1: 95.2%; 2: 92.9%; 3: 93.2%

* * *

Assay: SK-BR-3 cell growth inhibitors, pilot screen, 24 h, human (AID 572);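 also: compound exposure lasted between 18 and 24 h rather than exactly 24 h; 100% = carrier-treated control wells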
Details: SK-BR-3 viability, CellTiter-Glo luminescence, at 10 µM, stronger effect = lower value
RESULT_TYPE: viability (%)
Numbers only, in %.

STRUCTURE_NOTATION	viability (%)
Cn1c(-c2ccc(F)cc2)cnc1SCC(=O)Nc1ccccc1N1CCOCC1	94
CCOc1ccc2[nH]c(O)c(NC(C)=O)c2c1	95
Cc1cccc(C)c1OCC(=O)Nc1cccc(NC(=O)c2ccco2)c1	97
Cc1ccc(CN2CCN(C(=O)C3CCC3)CC2)cc1	88
Cc1ccc(Nc2nc(Oc3ccc(=O)[nH]n3)nc(N(C)C)n2)cc1	81

Attention now shifts to the item below.
Give its viability value. Item: CCOC(=O)N1CCN(C(=O)c2ccc3c(=O)n(Cc4ccc(OC)cc4)c(=S)[nH]c3c2)CC1 99

* * *

Test: SK-BR-3 cell growth inhibitors, pilot screen, 24 h, human (AID 572);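 also: compound exposure lasted between 18 and 24 h rather than exactly 24 h; 100% = carrier-treated control wells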
Conditions: SK-BR-3 viability, CellTiter-Glo luminescence, at 10 µM, stronger effect = lower value
Activity calls are given as the source filed them.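 How the source made its calls: active means viability at or below 10% of carrier control in both of two separate runs; inconclusive means viability at or below 10% in only one of the two runs; inactive means the rest.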
RESULT_TYPE: viability

COMPOUND	viability
Cc1cccc(NC(=O)c2cc3ccccc3o2)c1	142% (inactive)
Cn1c(=O)cc(OCCCC(=O)N2CCCCC2)c2ccccc21	98% (inactive)
O=C(CC(Cc1ccccc1)C(=O)O)NCCc1ccc2c(c1)OCO2 (stereo not drawn)	90.5% (inactive)

Your task in this section: give viability for each listed record.
1. CCCc1cc(=O)[nH]c(Nc2ccc(OC)c(Cl)c2)n1
2. O=C(CN1CCC(c2nc3ccccc3s2)CC1)NCc1cccs1
3. CCn1c(CCNC(=O)c2cccs2)nnc1SCC(=O)c1ccc(OC)cc1
4. O=C(CSc1nnc(-c2ccccn2)n1Cc1ccccc1)N1CCCC1
5. COc1ccc(S(=O)(=O)Cc2ccc(C(=O)N3CCN(Cc4ccccc4)CC3)o2)cc1
6. CCOCCCn1c(=NC(C)=O)c(C(=O)OCC)cc2c(=O)n3ccccc3nc21
7. CC(C)(C)C(=O)OCC1OC(n2cnc(C(N)=O)n2)C(O)C1O (stereo not drawn)
8. CCc1nnc(NC(=O)CSc2nnc(-c3ccccc3OC)n2-c2ccccc2)s1

115% (inactive)
110% (inactive)
106% (inactive)
109% (inactive)
86.5% (inactive)
82% (inactive)
89% (inactive)
77% (inactive)

Your task in this section: give viability for each listed record.
1. Cc1ccc(S(=O)(=O)NCCNC(=O)C2CCCNC2=O)cc1 (stereo not drawn)
2. O=C(NC(=O)c1ccc(Cl)cc1)Nc1cc(N2CCCCC2)ncn1
3. Cc1nnc(C)c2c(C)n(Cc3ccc4c(c3)OCO4)c(C)c12
4. COC(=O)Cn1c(CCS(=O)(=O)c2ccc(C)cc2)nc2ccccc21
5. O=S(=O)(NCC1CCCO1)c1ccc2c(c1)OCCO2 (stereo not drawn)
6. CC1(C)S[C@@H]2[C@H](NC(=O)[C@H](C(=O)O)c3ccsc3)C(=O)N2[C@H]1C(=O)O
7. O=C(NCc1ccccc1)c1cc(-c2ccco2)on1

93.5% (inactive)
85% (inactive)
76% (inactive)
99% (inactive)
128% (inactive)
105% (inactive)
111% (inactive)

Your task in this section: give viability for each listed record.
1. O=C(NCc1ccc2c(c1)OCO2)c1ccc(NS(=O)(=O)c2ccc3c(c2)OCCO3)cc1
2. COCCNC(=O)CCCCCN1C(=O)CCC1=O
3. Cc1c(C(=O)NC2CCCc3ccccc32)oc2ccc(S(=O)(=O)N3CCOCC3)cc12 (stereo not drawn)

1. 102% (inactive)
2. 108% (inactive)
3. 94.5% (inactive)

Your task in this section: give viability for each listed record.
1. O=C(O)C1CCCN1c1ncnc2c1oc1ccccc12 (stereo not drawn)
2. CCOCC(=O)Nc1nc2ccc(OC)cc2s1

101% (inactive)
107% (inactive)
